Molecular target: 14-3-3γ (Homo sapiens)
Construct: made in house; host or cells: E. coli NiCo21 (DE3)
Sequence (P61981 1-247): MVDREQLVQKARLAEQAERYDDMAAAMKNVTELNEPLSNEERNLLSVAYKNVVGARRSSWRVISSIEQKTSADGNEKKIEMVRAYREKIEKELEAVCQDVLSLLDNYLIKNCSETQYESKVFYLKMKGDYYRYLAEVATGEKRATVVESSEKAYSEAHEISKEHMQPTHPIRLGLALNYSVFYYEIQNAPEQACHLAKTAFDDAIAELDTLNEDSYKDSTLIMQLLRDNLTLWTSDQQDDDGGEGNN
Assay: Fluorescence anisotropy (FA) binary binding study: 14-3-3 titrated to fluorescein-labelled peptide
Details: Table S3; ΔG minus ΔG of previous peptide, FA; replicate 1
Where a SMILES comes first, the peptide text is derived from it. [ ]: non-standard residue; d: D form. The star is where a group is joined. ξ: configuration not given here. FITC = O=C1OC2(c3ccc(O)cc3Oc3cc(O)ccc32)c2ccc(NC(=S)*)cc21; Phe(4-NO2) = N[C@@H](Cc1ccc([N+](=O)[O-])cc1)C(=O)O; ξAla(4-thiazolyl) = NC(Cc1cscn1)C(=O)O; pS = N[C@@H](COP(=O)(O)O)C(=O)O; β3hS = N[C@@H](CO)CC(=O)O; Nva = CCC[C@H](N)C(=O)O; AEA = NCCOCC(=O)O; βAla = NCCC(=O)O
Assignment: determine reported ΔΔG (to previous) for the given compounds.

GET /value?item= CCC[C@H](NC(=O)[C@@H](CCCCN)NC(=O)COCCNC(=S)Nc1ccc2c(c1)C(=O)OC21c2ccc(O)cc2Oc2cc(O)ccc21)C(=O)N[C@@H](Cc1ccc([N+](=O)[O-])cc1)C(=O)NC(Cc1cscn1)C(=O)N[C@@H](COP(=O)(O)O)C(=O)N[C@@H](Cc1ccc([N+](=O)[O-])cc1)C(=O)N[C@@H](CO)CC(=O)NCCC(=O)N[C@@H](Cc1ccc([N+](=O)[O-])cc1)C(N)=O (stereo partly drawn) [2e] ({FITC-AEA}-[dK][Nva][Phe(4-NO2)][ξAla(4-thiazolyl)][pS][Phe(4-NO2)][β3hS][βAla][Phe(4-NO2)]-NH2) &field=ΔΔG (to previous) returns 1,01 kcal/mol

Just so you know, measured ΔΔG (to previous) for CCC[C@H](NC(=O)[C@@H](CCCCN)NC(=O)COCCNC(=S)Nc1ccc2c(c1)C(=O)OC21c2ccc(O)cc2Oc2cc(O)ccc21)C(=O)N[C@@H](Cc1ccc([N+](=O)[O-])cc1)C(=O)NC(Cc1cscn1)C(=O)N[C@@H](COP(=O)(O)O)C(=O)N[C@@H](Cc1ccc([N+](=O)[O-])cc1)C(=O)N[C@@H](CO)CC(N)=O (stereo partly drawn) [2g] ({FITC-AEA}-[dK][Nva][Phe(4-NO2)][ξAla(4-thiazolyl)][pS][Phe(4-NO2)][β3hS]-NH2) came out at 0,39 kcal/mol
